Target: Cytochrome P450 3A7 (Homo sapiens) (UniProt P24462)
Sequence (P24462 whole entry, looked up): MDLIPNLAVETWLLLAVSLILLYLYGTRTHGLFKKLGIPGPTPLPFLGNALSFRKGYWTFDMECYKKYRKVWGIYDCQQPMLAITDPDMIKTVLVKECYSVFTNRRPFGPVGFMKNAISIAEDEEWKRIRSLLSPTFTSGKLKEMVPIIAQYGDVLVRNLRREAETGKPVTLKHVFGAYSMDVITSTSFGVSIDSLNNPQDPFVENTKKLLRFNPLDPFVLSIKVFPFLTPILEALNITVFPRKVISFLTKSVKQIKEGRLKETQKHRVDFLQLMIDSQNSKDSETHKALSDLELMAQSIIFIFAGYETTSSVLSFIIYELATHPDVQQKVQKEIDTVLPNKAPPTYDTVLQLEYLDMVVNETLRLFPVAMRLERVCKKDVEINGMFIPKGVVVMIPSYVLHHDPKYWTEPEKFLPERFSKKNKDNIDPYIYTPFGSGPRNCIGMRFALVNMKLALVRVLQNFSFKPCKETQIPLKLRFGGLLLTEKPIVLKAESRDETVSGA
Assay: Cytochrome P450 family 3 subfamily A member 7 (CYP3A7) small molecule antagonists: luciferase biochemical qHTS assay (AID 1963596); further: on the % scale 0 is the no-effect control and ±100 the full control effect; nearly all actives have a fitted effect of over 40% in size
Settings: P450-Glo CYP3A7 enzyme luminescence, 1 h; series mostly up to 57.4 µM
Description: National Center for Advancing Translational Sciences [NCATS] Assay Overview: Cytochrome P450 (CYP) enzymes are membrane-bound hemeproteins that play a key role in metabolism of drugs and xenobiotics. […] The luciferin products formed are detected with a luciferin detection reagent, and the amount of light produced is proportional to CYP activity. […]
Inconclusive results are not listed. Activity calls are given as the source filed them. The call rests on the fitted dose curve; in most records, active means well fitted inhibition curve with a large enough effect; inconclusive means small, poorly fitted or top-dose-only effect; inactive means no such curve, though single readings can be large or run the other way.
Attribute Measured: outcome

>>> value_observed("COc1ccc(-c2nc3n(n2)C(c2ccc(OC)c(OC)c2)C(C(=O)Nc2cccnc2)=C(C)N3)cc1 (stereo not given)")
"inactive"
>>> value_observed("CCCCOCCOC(=O)c1cccnc1")
"inactive"
>>> value_observed("Cc1cccc(C)c1NC(=O)c1ccccc1C(=O)O")
"inactive"
>>> value_observed("Nc1ccn([C@H]2CC[C@@H](CO)O2)c(=O)n1")
"inactive"
>>> value_observed("CO/N=C(\\C(=O)N[C@@H]1C(=O)N2C(C(=O)O)=C(CSc3nc(=O)c(O)nn3C)CS[C@H]12)c1csc(N)n1")
"inactive"
>>> value_observed("C[C@]12C=CC(=O)C=C1CC[C@@H]1[C@@H]2[C@@H](O)C[C@@]2(C)[C@H]1CC[C@]2(O)C(=O)COC(=O)CCC(=O)O")
"inactive"
>>> value_observed("COc1cc(N2CCOCC2)ccc1Nc1ncc(Cl)c(Nc2ccccc2NS(C)(=O)=O)n1")
"inactive"
>>> value_observed("NC(=O)c1ncn([C@@H]2O[C@H](CO)[C@@H](O)[C@H]2O)c1N")
"inactive"
>>> value_observed("CCOCC(O)COc1ccc(NC(=O)CC[S+](C)C)cc1 (stereo not given)")
"inactive"
>>> value_observed("COc1ccc(NC(=O)CSc2nc(-c3cccs3)cc(C(F)(F)F)n2)cc1OC")
"inactive"

* * *

Listing of recorded viability (% of control) by entry.
Test: Viability qHTS for spleen associated tyrosine kinase inhibitor (SYKi) naive MV4-11 cells (AID 1963823); further: nearly all actives have a fitted effect of over 40% in size
Conditions: MV4-11 AML viability, CellTiter-Glo luminescence, 72 h; series mostly up to 45 µM
Inconclusive results are not listed. The source made the active and inactive calls. Calls follow the shape of the dose curve; as a rule, active = well fitted cell-killing curve with a large enough effect; inconclusive = small, poorly fitted or top-dose-only effect, or effect the other way; inactive = no such curve, though single readings can be large or run the other way.
Attribute Measured: viability (% of control)

>>> value_observed("CC1(C)CC[C@]2(C(=O)O)[C@H](O)C[C@]3(C)C(=CCC4[C@@]5(C)CC[C@H](O[C@@H]6O[C@H](CO[C@@H]7OC[C@H](O)[C@H](O)[C@H]7O[C@@H]7OC[C@H](O)[C@H](O)[C@H]7O)[C@@H](O)[C@H](O)[C@H]6O)C(C)(C)C5CC[C@]43C)[C@@H]2C1 (some centres undefined)")
"57.5% [at 9.25 µM] (inactive)"
>>> value_observed("C[C@@H]1O[C@@H](O[C@@H]2[C@@H](O)[C@H](O[C@H]3CC[C@@]4(C)C(CC[C@]5(C)C4CC=C4[C@@H]6CC(C)(C)CC[C@]6(C(=O)O[C@@H]6O[C@H](CO)[C@@H](O)[C@H](O)[C@H]6O)CC[C@]45C)C3(C)C)O[C@H](C(=O)O)[C@H]2O)[C@H](O)[C@H](O)[C@H]1O (some centres undefined)")
"80.6% [at 9.25 µM] (inactive)"
>>> value_observed("CC1OC(OC2C(C)OC(OC3C(O)C(CO)OC(O[C@H]4CC[C@@]5(C)C(CC[C@]6(C)C5CC=C5C7[C@@H](C)[C@H](C)CC[C@]7(C(=O)O)CC[C@]56C(=O)O)C4(C)C)C3O)C(O)C2O)C(O)C(O)C1O (some centres undefined)")
"75.5% [at 9.25 µM] (inactive)"
>>> value_observed("C=CC(C)(O)CC/C=C(\\C)C(=O)OCC1OC(OC2CCC3(C)C(CCC4(C)C3CC=C3C5CC(C)(C)C(O)CC5(C(=O)O)CCC34C)C2(C)C)C(O)C(OC2OC(CO)C(O)C(OC3OC(CO)C(O)C(OC4OC(COC5OC(CO)C(O)C(O)C5O)C(O)C(O)C4O)C3O)C2O)C1O (centres undefined)")
"99.5% [at 9.25 µM] (inactive)"

* * *

Assay: Viability qHTS for spleen associated tyrosine kinase inhibitor (SYKi) drug resistant MV4-11 cells (AID 1963824); further: nearly all actives have a fitted effect of over 35% in size; further: potency means the concentration at half of the fitted maximal effect
Conditions: SYKi-resistant MV4-11 viability, CellTiter-Glo, 72 h; series mostly up to 45 µM
Inconclusive results are not listed. Calls of active or inactive are those of the source. Calls come from the whole dose curve; as a rule, active = well fitted cell-killing curve with a large enough effect; inconclusive = small, poorly fitted or top-dose-only effect, or effect the other way; inactive = no such curve, though single readings can be large or run the other way.
Attribute Measured: Potency

>>> value_observed("CC(=O)Nc1nnc(S(N)(=O)=O)s1")
"inactive"
>>> value_observed("CC1(C)C(=O)CCC2(C)C1C(O)C=C1COC(=O)C12O (stereo not given)")
"inactive"
>>> value_observed("CC(C)[C@H](CO)Nc1nc(Nc2cccc(Cl)c2)c2ncn(C(C)C)c2n1")
"3.32 µM (active)"
>>> value_observed("CC(C)c1cc(C(C)C)c(CC(=O)NS(=O)(=O)Oc2c(C(C)C)cccc2C(C)C)c(C(C)C)c1")
"4.68 µM (active)"
>>> value_observed("CC1(C)S[C@@H]2[C@H](N=CN3CCCCCC3)C(=O)N2[C@H]1C(=O)O")
"inactive"
>>> value_observed("C[C@@H]1O[C@@H](O[C@H]2[C@H](OC(C#N)c3ccc(O)cc3)O[C@H](CO)[C@@H](O)[C@@H]2O)[C@H](O)[C@H](O)[C@H]1O (stereo not given in full)")
"inactive"
>>> value_observed("COc1ccc2c(c1)[C@@H]1C[C@]1(C(=O)N1[C@@H]3CC[C@H]1CN(C)C3)Cn1c-2c(C2CCCCC2)c2ccc(C(=O)NS(=O)(=O)N(C)C)cc21")
"7.31 µM (active)"
>>> value_observed("COC(=O)[C@H](CC1C=NC=N1)NCC12CC3CC(CC(C3)C1)C2 (stereo not given in full)")
"inactive"
>>> value_observed("CC1CCC2C(C(=O)O)=CC3C(O)C(C)(C)CC123 (stereo not given)")
"inactive"
>>> value_observed("CC1(C)CCCC2(C)C=C(C(=O)O)C(O)CC12 (stereo not given)")
"inactive"
>>> value_observed("CCCOC(=O)c1ccc(O)cc1")
"0.0863 µM (active)"
>>> value_observed("NCCCCNCCCN")
"5.9 µM (active)"
>>> value_observed("C/C(=C\\C=C\\C(C)C1CCC2(C)C3CCC4C(C)(C)C(=O)CCC45CC35CCC12C)C(=O)O (stereo not given)")
"6.32 µM (active)"
>>> value_observed("CC(C)(C)C(O)/C=C/c1ccc2c(c1)OCO2 (stereo not given)")
"inactive"
>>> value_observed("O=C(O)C1CCCN(CCC=C(c2ccccc2)c2ccccc2)C1 (stereo not given)")
"inactive"
>>> value_observed("C[C@@H]1CCN(C(=O)[C@H](CCCN=C(N)N)NS(=O)(=O)c2cccc3c2NC[C@H](C)C3)[C@@H](C(=O)O)C1")
"inactive"
>>> value_observed("N[C@@H](CCC(=O)N[C@@H](CS)C(=O)NCC(=O)O)C(=O)O")
"inactive"
>>> value_observed("COc1cccc2c1CCC[C@H]2CN(C)CCc1ccc2ccoc2c1")
"23.1 µM (active)"
>>> value_observed("O=C(O)[C@H](O)[C@@H](O)[C@H](O[C@@H]1O[C@H](CO)[C@H](O)[C@H](O)[C@H]1O)[C@H](O)CO")
"inactive"
>>> value_observed("C[C@@H](C1=C(CCN(C)C)Cc2ccccc21)c1ccccn1")
"inactive"

* * *

Assay: Viability qHTS for spleen associated tyrosine kinase inhibitor (SYKi) drug resistant MV4-11 cells (AID 1963824); further: nearly all actives have a fitted effect of over 35% in size; further: potency means the concentration at half of the fitted maximal effect
Settings: SYKi-resistant MV4-11 viability, CellTiter-Glo, 72 h; series mostly up to 45 µM
Records with an inconclusive call do not appear. Active and inactive are the calls of the source. Calls follow the shape of the dose curve; as a rule, active = well fitted cell-killing curve with a large enough effect; inconclusive = small, poorly fitted or top-dose-only effect, or effect the other way; inactive = no such curve, though single readings can be large or run the other way.
Attribute Measured: Potency

>>> value_observed("CCCN1CCC(c2cccc(S(C)(=O)=O)c2)CC1")
"inactive"
>>> value_observed("CCCCCCCCCCCC(CC1OC(=O)C1CCCCCC)OC(=O)C(CC(C)C)NC=O (centres undefined)")
"3.72 µM (active)"
>>> value_observed("CN(C)CC/C=C1\\c2ccccc2COc2ccccc21")
"inactive"
>>> value_observed("CCOC(=O)CCNc1cc(N2CCc3ccccc3CC2)nc(-c2ccccn2)n1")
"5.25 µM (active)"
>>> value_observed("CC(/C=C/C1(O)C(C)(C)CC(O)CC1(C)O)OC1OC(CO)C(O)C(O)C1O (centres undefined)")
"inactive"
>>> value_observed("C=C1CCC(OC(C)=O)C2(C)CC3(O)OC(=O)C(C)=C3CC12 (centres undefined)")
"inactive"
>>> value_observed("CC(C)(F)CC(NC(c1ccc(-c2ccc(S(C)(=O)=O)cc2)cc1)C(F)(F)F)C(=O)NC1(C#N)CC1 (centres undefined)")
"3.66 µM (active)"
>>> value_observed("CC[C@H](C)[C@@H]1NC(=O)[C@H](Cc2ccc(OC)cc2)NC(=O)CCCSC[C@@H](C(=O)N2CCC[C@H]2C(=O)N[C@@H](CC(C)C)C(=O)NCC(N)=O)NC(=O)[C@H](CC(N)=O)NC(=O)[C@H](CCC(N)=O)NC1=O")
"inactive"
>>> value_observed("CCOC(=O)N1CCC(=C2c3ccc(Cl)cc3CCc3cccnc32)CC1")
"8.41 µM (active)"
>>> value_observed("COc1cc(N2CCN(C)CC2)ccc1Nc1ncc2c(n1)N(C)c1ccccc1C(=O)N2")
"13.2 µM (active)"
>>> value_observed("CCCCOC(=O)NS(=O)(=O)c1sc(CC(C)C)cc1-c1ccc(Cn2ccnc2)cc1")
"14.8 µM (active)"
>>> value_observed("CCNc1nc2c(ncn2[C@H]2C[C@H](O)[C@@H](CO)O2)c(=O)[nH]1")
"inactive"
>>> value_observed("C/C=C/C=C/C=C/C(=O)O[C@@H]1[C@@H](OC)C2=C(C(=O)N(C(C)C(=O)O)C2)[C@@]2(C)CCCC(C)(C)[C@H]12 (some centres undefined)")
"inactive"
>>> value_observed("CC(C)=CC/C=C(/C)[C@H]1CC[C@]2(C)[C@@H]1[C@H](O)CC1[C@@]3(C)CC[C@H](O)C(C)(C)[C@@H]3[C@@H](O[C@@H]3O[C@H](CO)[C@@H](O)[C@H](O)[C@H]3O[C@@H]3O[C@@H](C)[C@H](O)[C@@H](O)[C@H]3O)C[C@]12C (some centres undefined)")
"inactive"
>>> value_observed("Nc1ccc(O)c(C(=O)O)c1")
"inactive"
>>> value_observed("N#Cc1ccc(C2CCCc3cncn32)cc1 (centres undefined)")
"inactive"
>>> value_observed("COC(=O)C1=COC(O[C@@H]2O[C@H](COC(=O)/C=C/c3ccc(O)cc3)[C@@H](O)[C@H](O)[C@H]2O)C2C(CO)=CCC12 (some centres undefined)")
"inactive"
>>> value_observed("COc1cc([C@H]2Oc3cc([C@H]4Oc5cc(O)cc(O)c5C(=O)[C@@H]4O)ccc3O[C@@H]2CO)ccc1O")
"18.6 µM (active)"
>>> value_observed("CC1(C)Oc2ncnc(N)c2N=C1c1ccc(C2CCC(CC(=O)O)CC2)cc1 (centres undefined)")
"inactive"
>>> value_observed("C=CC(=O)Nc1cc(-n2c(=O)ccc3cnc4ccc(-c5ccc(NS(C)(=O)=O)cc5)cc4c32)ccc1C")
"1.3 µM (active)"
>>> value_observed("Cc1ccc2[nH]c(=O)c(C3=NN(C(=O)CCC(=O)O)C(c4ccc(Br)cc4)C3)c(-c3ccccc3)c2c1 (centres undefined)")
"23.1 µM (active)"
>>> value_observed("Nc1ccn([C@H]2O[C@@H](CO)[C@H](O)[C@H]2O)c(=O)n1")
"1.46 µM (active)"
>>> value_observed("C=C(CCO[C@@H]1O[C@H](CO)[C@@H](O)[C@H](O)[C@H]1O)C(=O)O")
"inactive"
>>> value_observed("COC(=O)C[C@H]1C(C)(C)[C@H](OC(=O)C(C)C)[C@@]2(O)C(=O)[C@]1(C)C1CC[C@]3(C)C(CC(=O)O[C@H]3c3ccoc3)[C@]13O[C@@H]32 (some centres undefined)")
"inactive"
>>> value_observed("COc1cc(C(=O)NC2CCN(C)CC2)ccc1Nc1ncc2c(n1)N(C1CCCC1)CCC(=O)N2C(C)C")
"4.17 µM (active)"
>>> value_observed("FC(F)(F)C(F)(F)C(F)(F)C(F)(F)C(F)(F)C(F)(F)C(F)(F)C(F)(F)Br")
"inactive"
>>> value_observed("COc1cc2nc(N3CCN(C(=O)c4ccco4)CC3)nc(N)c2cc1OC")
"11.6 µM (active)"
>>> value_observed("CC1=C(CCC(C)O[C@@H]2O[C@H](CO)[C@@H](O)[C@H](O)[C@H]2O)C(C)(C)CCC1=O (some centres undefined)")
"inactive"
>>> value_observed("NS(=O)(=O)c1cc2c(cc1Cl)NC(C1CC3C=CC1C3)NS2(=O)=O (centres undefined)")
"inactive"
>>> value_observed("CC1(N)CCN(c2cccnc2NC(=O)c2nc(-c3ncccc3C(F)(F)F)cnc2N)CC1")
"11.8 µM (active)"
>>> value_observed("O=C(O)CCc1ccc(NCc2cccc(Oc3ccccc3)c2)cc1")
"16.4 µM (active)"
>>> value_observed("COc1ccc(C(=O)NCc2ccc(OCCN(C)C)cc2)cc1OC")
"inactive"
>>> value_observed("CC(C)C(=O)O[C@@H]1[C@@H](O)[C@@H](O[C@H]2O[C@H](CO)[C@@H](O)[C@H](O)[C@H]2O)O[C@H](CO)[C@H]1O")
"inactive"
>>> value_observed("CC(=O)O[C@]1(C(C)=O)CC[C@H]2[C@@H]3C=C(C)C4=CC(=O)CC[C@]4(C)[C@H]3CC[C@@]21C")
"14.8 µM (active)"
